Biological target: T1, UNK ZnF1-3 (human, UniProt Q9C0B0 31-174)
T1 sequence: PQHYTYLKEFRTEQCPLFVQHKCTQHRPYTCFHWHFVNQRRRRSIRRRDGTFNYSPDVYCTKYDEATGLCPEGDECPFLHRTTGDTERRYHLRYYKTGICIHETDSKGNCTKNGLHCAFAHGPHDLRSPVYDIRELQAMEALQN
Assay: nsRBNS (natural sequence RNA bind-n-seq); RBNS binding buffer (assumed for nsRBNS): 25 mM Tris pH 7.5, 150 mM KCl, 3 mM MgCl2, 0.01% Triton X-100, 500 ug/ml BSA, 20 U/ml SUPERase-In, 4 C; UNK is unkempt and MSI1 is Musashi-1; names of the RNAs are library labels; protein concentration not given here; high values mean tight binding
Over roughly 24,000 sequences, “enrichment r” has its median near 0.99; the highest 2% begin near 3.7. This is one part of a sample in which the highest values are shown more often than they occur.
This section presents binders with their documented binding signal values.
The figure you give is taken to be in enrichment R; do not add the unit.

The following binders have reported results that may help.
Measured binding signal of chr2:129025431:129025432:+_ENSMUSG00000027397_ENSMUST00000028880|mus_mus|motif|central (ssRNA) RNA: GGGAGUUCUACAGUCCGACGAUCUUGCCACAGUAGAUUCCAUUCUCUAGUGUAGUGGUUCUUUAAAUAAUAAGAGAAUUACGGAGCGGCUUUUGAGAUGUGUAAACGGAAUGAGGUAUCAAAAUGCUAUAAUAAAUAGUAUAUCAACAGAGGAUUGAGCAUCA : 1.26

Measured binding signal of chr1:84034342:84034343:-_ENSMUSG00000045658_ENSMUST00000168574|mus_mus|FALSE|FALSE (ssRNA) RNA: GGGAGUUCUACAGUCCGACGAUCGCCUGAGAAUGGUGAAAAUAGGCGUGGAGAUCUCCCAGCAGGAAGUGUUGGAAUAGGAGAGGAAAAAAAAAGUGAGAGGAGAGUCUGGAACCUUCCUCCCCAUCUGUACUCUCCUCAAGACAACAGAGGAUUGAGCAUCA : 1.32

Now turn to the next binder.
Measured binding signal of chr7:141450121:141450122:+_ENSG00000106028_ENST00000265304|hu_mus|hu_hu_hu_mus_True|8_98 (ssRNA) RNA: GGGAGUUCUACAGUCCGACGAUCUCAUCCGUUCUAUUCCUUCUCUUUUGUCUGGUCACUCAGAAAUAUAAUGUUAUCAGCUAUGAUUGUUGUUGCUUGCCGCCUCACAUUGUUUUUAUCCAUGUACUCACCAUAGUCCACUUUCAACAGAGGAUUGAGCAUCA : 0.398
